src = paper PMC7781899

test system: HCT-116; test: Radiosensitizing evaluation, HCT-116; type: cell-based; conditions: Homo sapiens, HCT-116, light or radiation study, 48 h; single dose of 8 Gy gamma radiation; measured two days after irradiation
Measured IC50 of individual entries
Observation Type: IC50 (µM)

| Compound | Experimental System | Number |
| --- | --- | --- |
| CSc1nc2ccccc2c(=O)n1C(C)C(O)c1ccccc1 (centres unmarked) [Compound 5] | HCT-116 | 2.28 |
| Nn1c(=S)[nH]c2ccccc2c1=O [Compound 6] | HCT-116 | 6.98 |

###

system: HepG-2; assay: MTT cytotoxicity assay, HepG-2; format: cell-based, human; settings: Homo sapiens, HepG2; MTT assay; mean of three experiments ± SE; read-out: IC50 HepG-2
Observation Type: IC50

| Compound | Result |
| --- | --- |
| CC1C(c2ccccc2)Sc2nc3ccccc3c(=O)n21 (centres unmarked) [Compound 8] | 47.3 µM |
| CC1C(c2ccccc2)Oc2nc3ccccc3c(=O)n21 (centres unmarked) [Compound 15] | 28.5 µM |
| CSc1nc2ccccc2c(=O)n1N [Compound 7] | 48.3 µM |
| CC1Nn2c(nc3ccccc3c2=O)OC1c1ccccc1 (centres unmarked) [Compound 9] | > 100 µM |
| CSc1nc2ccccc2c(=O)n1C(C)C(O)c1ccccc1 (centres unmarked) [Compound 5] | 4.14 µM |

###

The next entries give measured log10 IC50 for EGFR (Homo sapiens).
Observation Type: log10 IC50 (log10 of the value in µM)

| Compound | log10 IC50 |
| --- | --- |
| CSc1nc2ccccc2c(=O)n1N [Compound 7] | 0.54 |
| CC1C(c2ccccc2)Oc2nc3ccccc3c(=O)n2C(C)C(c2ccccc2)Oc2nc3ccccc3c(=O)n21 (centres unmarked) [Compound 17] | 0.01 |
| CSc1nc2ccccc2c(=O)n1C(C)C(O)c1ccccc1 (centres unmarked) [Compound 5] | -0.12 |
| CC1C(c2ccccc2)Sc2nc3ccccc3c(=O)n21 (centres unmarked) [Compound 8] | 0.57 |
| CC1Nn2c(nc3ccccc3c2=O)OC1c1ccccc1 (centres unmarked) [Compound 9] | 0.99 |

###

Measured melting point of individual entries

| Compound | melting point (°C) |
| --- | --- |
| O=c1c2ccccc2nc2[nH]n3c(=O)c4ccccc4nc3[nH]n12 [Compound 14] | 294.1 |
| CSc1nc2ccccc2c(=O)n1C(C)C(O)c1ccccc1 (centres unmarked) [Compound 5] | 121.5 |
| Nn1c(=S)[nH]c2ccccc2c1=O [Compound 6] | 261.2 |
| CC(Nc1nc2ccccc2c(=O)n1N)C(O)c1ccccc1 (centres unmarked) [Compound 11] | 147.5 |
| CSc1nc2ccccc2c(=O)n1N [Compound 7] | 178.9 |

###

Measured pIC50 of individual entries
system: HepG-2; experiment: MTT cytotoxicity assay, HepG-2; type: cell-based, human; conditions: Homo sapiens, HepG2; MTT assay; mean of three experiments ± SE; read-out: IC50 HepG-2
pIC50: −log10 of the molar value.

| Compound | Readout Relation | pIC50 |
| --- | --- | --- |
| O=c1c2ccccc2nc2[nH]n3c(=O)c4ccccc4nc3[nH]n12 [Compound 14] | = | 4.38 |
| Nn1c(=S)[nH]c2ccccc2c1=O [Compound 6] | = | 4.75 |
| Nn1c(O)nc2ccccc2c1=O [Compound 12, 3-Amino-2-hydroxyquinazolin-4(3H)-one] | = | 4.69 |
| CC(Nc1nc2ccccc2c(=O)n1N)C(O)c1ccccc1 (stereo not drawn) [Compound 11] | = | 4.47 |
| CC1C(c2ccccc2)Oc2nc3ccccc3c(=O)n2C(C)C(c2ccccc2)Oc2nc3ccccc3c(=O)n21 (stereo not drawn) [Compound 17] | = | 4.61 |
| CC1Nn2c(nc3ccccc3c2=O)SC1c1ccccc1 (stereo not drawn) [Compound 10] | = | 4.45 |
| CCOc1nc2ccccc2c(=O)n1N [Compound 13, 3-amino-2-ethoxyquinazolin-4(3H)-one] | < | 4.00 |
| CC(C(O)c1ccccc1)n1c(=S)[nH]c2ccccc2c1=O (stereo not drawn) [Compound 4] | = | 4.64 |
| CC(Nc1nc2ccccc2c(=O)n1C(C)C(O)c1ccccc1)C(O)c1ccccc1 (stereo not drawn) [Compound 18] | = | 4.30 |
